System: Aminopeptidase N (Sus scrofa) | Read-out: pIC50 | Origin: multiple publications
Sequence (P15145 whole entry): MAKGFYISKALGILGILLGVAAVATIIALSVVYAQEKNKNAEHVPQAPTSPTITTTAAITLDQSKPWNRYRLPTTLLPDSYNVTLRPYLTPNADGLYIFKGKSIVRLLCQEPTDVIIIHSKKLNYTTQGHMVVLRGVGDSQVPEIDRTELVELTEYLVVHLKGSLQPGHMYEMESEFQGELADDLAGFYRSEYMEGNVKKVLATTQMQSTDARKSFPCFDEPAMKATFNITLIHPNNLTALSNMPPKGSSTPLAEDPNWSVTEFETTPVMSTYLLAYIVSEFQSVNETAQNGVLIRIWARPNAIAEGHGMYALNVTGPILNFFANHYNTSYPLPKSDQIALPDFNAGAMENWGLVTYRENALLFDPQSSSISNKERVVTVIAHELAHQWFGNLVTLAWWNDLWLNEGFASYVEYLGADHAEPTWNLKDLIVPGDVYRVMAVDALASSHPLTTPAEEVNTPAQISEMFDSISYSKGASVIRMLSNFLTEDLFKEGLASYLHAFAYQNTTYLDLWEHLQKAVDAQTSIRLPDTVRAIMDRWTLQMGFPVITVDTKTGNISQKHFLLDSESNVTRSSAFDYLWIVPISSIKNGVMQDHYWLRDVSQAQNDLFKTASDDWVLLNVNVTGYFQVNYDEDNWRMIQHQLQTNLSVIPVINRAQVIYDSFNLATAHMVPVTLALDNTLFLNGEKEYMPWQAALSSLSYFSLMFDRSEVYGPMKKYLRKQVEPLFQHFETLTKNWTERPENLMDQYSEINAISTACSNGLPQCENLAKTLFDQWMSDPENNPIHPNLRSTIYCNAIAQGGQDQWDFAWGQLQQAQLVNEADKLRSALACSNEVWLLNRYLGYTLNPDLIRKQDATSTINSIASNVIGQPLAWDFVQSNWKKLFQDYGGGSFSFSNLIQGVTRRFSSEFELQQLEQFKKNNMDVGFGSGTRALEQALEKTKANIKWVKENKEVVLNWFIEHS
pIC50: −log10 of the molar value.
QUANTITY MEASURED: pIC50

[[record]]
test_smiles = "COc1cc(C(=O)N[C@H](CCC(=O)O)C(=O)Nc2ccc(C(=O)O)cc2)cc(OC)c1OC"
reported_measurement = 4.18

[[record]]
test_smiles = "CCCCCCCCCCCCNC(=O)C[C@@H](NC(=O)/C=C/c1ccccc1)C(=O)NO"
reported_measurement = 3.36

[[record]]
test_smiles = "CC(C)C[C@H](NC(=O)[C@H](N)Cc1ccccc1)C(=O)NC[C@H](N)[C@@H](O)c1ccc(N)cc1"
reported_measurement = 4.50

[[record]]
test_smiles = "COC(=O)CN1C(=O)CC[C@H](NC(=O)c2cc(OC)c(OC)c(OC)c2)C1=O"
reported_measurement = 4.20


P: CCCCNC(=O)C[C@@H](NC(=O)/C=C/c1ccccc1)C(=O)O
Q: N[C@H](Cc1ccccc1)C(=O)NC[C@H](O)C(=O)NC[C@H](N)[C@@H](O)c1ccc([N+](=O)[O-])cc1
R: COc1cc(C(=O)N[C@H](CCC(=O)O)C(=O)Nc2cc(Cl)ccc2Cl)cc(OC)c1OC
Place the items in sequence of falling pIC50. Thanks in advance for listing the labels in the requested order.
Q, R, P
(Q: 4.75, R: 4.09, P: 3.72)
